Cited source for all entries: patent US4178371A

G.P.I. Potency (X Met enkephalin): recorded values
# Tested on: opiate receptor sites
# Conditions: isolated guinea pig ileum twitch response, dose response curve compared with Met enkephalin
# Source text: The test used for the detection of their agonist activity at opiate receptor sites is that employing the transmurally stimulates guinea pig ileum preparation described in Kosterlitz et al., Brit. J. Pharmacol, and Chemotherapy 33. 266-276 (1968). […] Exp. Ther. 125, 237 (1959) and by the rat tail flick test (intravenous administration) according to Jansen et al., Arzneim Forsch. 13, 266 (1963). […]
Quick note: give the figure in X Met enkephalin, leave out the unit.

Here are 3 compounds together with their reported answers.
{"Smiles text": "CC(=O)NCCNC(=O)[C@H](Cc1ccccc1)NC(=O)CNC(=O)[C@@H](C)NC(=O)[C@@H](N)Cc1ccc(O)cc1", "Recorded result": 2.6}
{"Smiles text": "C[C@@H](NC(=O)[C@@H](N)Cc1ccc(O)cc1)C(=O)NCC(=O)N(C)[C@@H](Cc1ccccc1)C(=O)NCCN", "Recorded result": 13.0}
{"Smiles text": "C[C@@H](NC(=O)[C@@H](N)Cc1ccc(O)cc1)C(=O)NCC(=O)N(C)[C@@H](Cc1ccccc1)C(=O)NCCCC(=O)N(C)c1ccccc1", "Recorded result": 23.2}

Lookup result for C[C@@H](NC(=O)[C@@H](N)Cc1ccc(O)cc1)C(=O)NCC(=O)N(C)[C@@H](Cc1ccccc1)C(=O)NCCN(C)C ; measured G.P.I. Potency (X Met enkephalin): 8.5

Recorded result, C[C@@H](NC(=O)[C@@H](N)Cc1ccc(O)cc1)C(=O)NCC(=O)N(C)[C@@H](Cc1ccccc1)C(=O)NCC[N+](C)(C)[O-] , G.P.I. Potency (X Met enkephalin): 6.5

For C[C@@H](NC(=O)[C@@H](N)Cc1ccc(O)cc1)C(=O)NCC(=O)N(C)[C@@H](Cc1ccccc1)C(=O)NCCCN(C)C the compound record lists G.P.I. Potency (X Met enkephalin) as 7.2
